Where do the numbers come from? From patent US20080286277A1.

# target_of_assay: T1, human epidermal growth factor receptor (EGFR) (human, UniProt P00533 25-1210)
# T1 construct: whole, on cells; also called HER-1; ErbB1
# experimental_protocol: flow cytometry on A431 cells, heavy chain paired with I-KC
endpoint_label: binding result

INSERT INTO assay_data (binder, endpoint_label, recorded_result) VALUES
  ('humanized ICR62 antibody I-HHD-2/I-KC (antibody, human IgG1, V domains shown) VH: QVQLVQSGAEVKKPGSSVKVSCKASGFSFTDYKIHWVRQAPGQGLEWMGYFNPNSGYSTYAQKFQGRVTITADKSTSTAYMELSSLRSEDTAVYYCARLSPGGYYVMDAWGQGTTVTVSS VL: DIQMTQSPSSLSASVGDRVTITCRASQGINNYLNWYQQKPGKAPKRLIYNTNNLQTGVPSRFSGSGSGTEFTLTISSLQPEDFATYYCLQHNSFPTFGQGTKLEIKR', 'binding result', 'binds'),
  ('humanized ICR62 antibody I-HHD-9/I-KC (antibody, human IgG1, V domains shown) VH: QVQLVQSGAEVKKPGSSVKVSCKASGFTFTDYKIHWVRQAPGQGLEWMGYFNPNSGYATYAQKFQGRVTITADKSTSTAYMELSSLRSEDTAVYYCARLSPGGYYVMDAWGQGTTVTVSS VL: DIQMTQSPSSLSASVGDRVTITCRASQGINNYLNWYQQKPGKAPKRLIYNTNNLQTGVPSRFSGSGSGTEFTLTISSLQPEDFATYYCLQHNSFPTFGQGTKLEIKR', 'binding result', 'binds'),
  ('humanized ICR62 antibody I-HHD-11/I-KC (antibody, human IgG1, V domains shown) VH: QVQLVQSGAEVKKPGSSVKVSCKASGFTFTDYKIHWVRQAPGQGLEWMGYFNPNSGYSTYAQKFQGRVTITADKSTSTAYMELSSLRSEDTAVYYCARLSPGGYYVMDVWGQGTTVTVSS VL: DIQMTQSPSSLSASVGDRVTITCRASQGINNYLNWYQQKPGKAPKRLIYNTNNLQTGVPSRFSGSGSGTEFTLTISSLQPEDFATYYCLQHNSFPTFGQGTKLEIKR', 'binding result', 'binds'),
  ('humanized ICR62 antibody I-HHD-6/I-KC (antibody, human IgG1, V domains shown) VH: QVQLVQSGAEVKKPGSSVKVSCKASGFTFTDYKIHWVRQAPGQGLEWMGYFNANSGYSTYAQKFQGRVTITADKSTSTAYMELSSLRSEDTAVYYCARLSPGGYYVMDAWGQGTTVTVSS VL: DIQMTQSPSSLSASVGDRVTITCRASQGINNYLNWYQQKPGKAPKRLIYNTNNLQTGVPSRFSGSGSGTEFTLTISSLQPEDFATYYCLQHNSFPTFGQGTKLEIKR', 'binding result', 'binds'),
  ('humanized ICR62 antibody I-HHD-1/I-KC (antibody, human IgG1, V domains shown) VH: QVQLVQSGAEVKKPGSSVKVSCKASGGTFTDYKIHWVRQAPGQGLEWMGYFNPNSGYSTYAQKFQGRVTITADKSTSTAYMELSSLRSEDTAVYYCARLSPGGYYVMDAWGQGTTVTVSS VL: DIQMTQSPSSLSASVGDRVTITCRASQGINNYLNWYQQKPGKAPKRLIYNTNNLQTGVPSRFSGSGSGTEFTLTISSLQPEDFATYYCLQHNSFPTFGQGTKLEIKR', 'binding result', 'binds');

Need binding result of humanized ICR62 antibody I-HHD-4/I-KC (antibody, human IgG1, V domains shown) VH: QVQLVQSGAEVKKPGSSVKVSCKASGFTFTEYKIHWVRQAPGQGLEWMGYFNPNSGYSTYAQKFQGRVTITADKSTSTAYMELSSLRSEDTAVYYCARLSPGGYYVMDAWGQGTTVTVSS VL: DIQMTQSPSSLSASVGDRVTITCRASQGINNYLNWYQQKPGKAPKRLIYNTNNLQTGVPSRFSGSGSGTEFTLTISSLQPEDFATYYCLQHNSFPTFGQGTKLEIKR , thanks.
binds

Which binding result is reported for this binder? humanized ICR62 antibody I-HHD-7/I-KC (antibody, human IgG1, V domains shown) VH: QVQLVQSGAEVKKPGSSVKVSCKASGFTFTDYKIHWVRQAPGQGLEWMGYFNPISGYSTYAQKFQGRVTITADKSTSTAYMELSSLRSEDTAVYYCARLSPGGYYVMDAWGQGTTVTVSS VL: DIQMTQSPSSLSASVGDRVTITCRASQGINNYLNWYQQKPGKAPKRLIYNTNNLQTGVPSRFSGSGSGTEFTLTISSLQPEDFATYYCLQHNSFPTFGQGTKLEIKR
binds
